Listing of entries alongside the reported pIC50.
Tested on: COS Cell
Assay: COS Cell IC50 (Cell-Based Assay), procedures of WO 95/10516
pIC50: −log10 of the molar value.

[
  {
    "molecule": "O=C(Cc1cc[n+]([O-])cc1)N1CCC([C@@H]2c3c(Br)cc(Cl)cc3CCc3cc(Br)c[n+]([O-])c32)CC1",
    "pIC50": "7.07 to 8.05"
  },
  {
    "molecule": "NC(=O)N1CCC(CC(=O)N2CCC([C@@H]3c4c(Br)cc(Cl)cc4CCc4cc(Br)c[n+]([O-])c43)CC2)CC1",
    "pIC50": "7.07 to 8.05"
  },
  {
    "molecule": "O=C(Cc1cc[n+]([O-])cc1)N1CCN(C2c3ccc(Cl)cc3CCc3cc(Br)c[n+]([O-])c32)CC1 (stereo not drawn)",
    "pIC50": "7.07 to 8.05"
  }
]

This collection of values is drawn from patent EP0988300B1.
